System: Mycobacterium kansasii
experiment-summary: Antimycobacterial activity against Mycobacterium kansasii CNCTC My 235/80 after 14 days
Format: functional
recorded-conditions: CNCTC My 235/80, 336 h
Would you mind telling me the reported MIC99 of each entry?
Quick reminder: number only, in µM, skip the unit.

Give the reported MIC99 for CCCCCCCCSc1nnc(-c2cc([N+](=O)[O-])cc(C(F)(F)F)c2)n1Cc1ccccc1 (system: Mycobacterium kansasii).
2

Would you mind doing Cn1c(SCc2ccc(Br)cc2)nnc1-c1cc([N+](=O)[O-])cc([N+](=O)[O-])c1 as well?
0.5

Please do the same for COc1ccc(CSc2nnc(-c3cc([N+](=O)[O-])cc(C(F)(F)F)c3)n2Cc2ccccc2)cc1 as well.
0.5

Then this compound: CCCCCCCCCCCc1nnc(SCc2cc([N+](=O)[O-])cc([N+](=O)[O-])c2)n1Cc1ccccc1
4

And then O=[N+]([O-])c1cc(-c2nnc(SCc3ccc(Cl)cc3)n2Cc2ccccc2)cc(C(F)(F)F)c1 , what is it?
0.5

Also check O=[N+]([O-])c1cc(CSc2nnc(CCCCCO)n2Cc2ccccc2)cc([N+](=O)[O-])c1
16

Then this compound: O=C(NNC(=S)NCc1ccccc1)c1cc([N+](=O)[O-])cc([N+](=O)[O-])c1
32

Okay, and O=[N+]([O-])c1cc(CSc2nnc(-c3ccccc3)n2C2CCCCC2)cc([N+](=O)[O-])c1 ?
2

Where do these numbers come from? They come from ChEMBL document CHEMBL4373711.
